Where these numbers come from: PubChem BioAssay (NCI)

# Test system: SR leukemia
# measurement_protocol: NCI tumour cell line growth inhibition, 48 h; in the data active = GI50 below about 0.43 µM; inactive = the rest
API: response.call in class 1 = active, class 0 = inactive

Solved entries (count: 2):
- compound: "CCCCC#CC1=C(Br)C(=O)OC1"
  category: "class 1"
- compound: "COc1cccc(F)c1C(=O)c1cnc(NC2CCN(S(C)(=O)=O)CC2)nc1N"
  category: "class 0"

Hello, I am checking results. What call was entered for COc1ccc(Sc2[nH]c(C(C)=O)c3ccccc23)cc1 ?
class 0

Hello, I am checking results. What call was entered for CCN1CCN(C(=O)[C@@]2(C)CC[C@]3(C)CC[C@]4(C)C(=CC(=O)[C@@H]5[C@@]6(C)CC[C@H](OC7C[C@@H](O)[C@@H](O)C(C)O7)C(C)(C)[C@@H]6CC[C@]54C)[C@@H]3C2)CC1 (stereo partly drawn) ?
class 0

Hello, I am checking results. What call was entered for Nc1ccc([N+](=O)[O-])cc1N=C/C=C/c1ccccc1 ?
class 0

Hello, I am checking results. What call was entered for O=C(Nc1ccc(Br)cc1F)c1cc(F)ccc1O ?
class 0

Hello, I am checking results. What call was entered for CCN(CC)CCC(CNc1ccnc2cc(Cl)ccc12)c1ccc(Cl)cc1 (stereo not drawn) ?
class 1

Hello, I am checking results. What call was entered for COc1cccc(CC(C)=C(c2ccc(OCCN(C)C)cc2)c2ccc(OCCN(C)C)cc2)c1 ?
class 0

----------
The following compounds are listed with their measured TGI values.
# System: SF-539 CNS
# measurement_protocol: NCI tumour cell line growth inhibition, 48 h
Provide the reading as a plain figure in µM.

Answered examples (2):
- compound: "Cn1c(I)c(C#CCO[Si](C)(C)C(C)(C)C)c(=O)[nH]c1=O"
  TGI [µM]: 30.9
- compound: "O=C(O)c1nnsc1-c1ccc(-c2snnc2C(=O)O)cc1"
  TGI [µM]: 69.7

State TGI on SF-539 CNS. Entry: CCN1CCN(C(=O)[C@@]2(C)CC[C@]3(C)CC[C@]4(C)C(=CC(=O)[C@@H]5[C@@]6(C)CC[C@H](OC7C[C@@H](O)[C@@H](O)C(C)O7)C(C)(C)[C@@H]6CC[C@]54C)[C@@H]3C2)CC1 (stereo partly drawn)
1.85

----------
# Tested on: RPMI-8226 leukemia
# measurement_protocol: NCI tumour cell line growth inhibition, 48 h
The following compounds are listed with their measured GI50 values.

Answered examples (5):
- compound: "Nc1nn2cc(F)cnc2c1C(=O)Nc1cncc(F)c1N1CCC(C(=O)N2CCN(C3COC3)CC2)CC1"
  reported_value: "1.2 µM"
- compound: "CC1=C(C(=O)Nc2ccc(F)c(Cl)c2)C(c2ccccc2O)NC(=S)N1 (stereo not given)"
  reported_value: "21.6 µM"
- compound: "Cc1ccc(SC2c3ccc(C)cc3Oc3nc(N)c(C#N)c(N)c32)cc1 (stereo not given)"
  reported_value: "2.15 µM"
- compound: "COc1ccc(OC)c2c1[nH]c(=O)c1c3ccccc3cn21"
  reported_value: "1.07 µM"
- compound: "COc1cc(OCc2cccc(-c3ccc(C(O)c4nccs4)cc3)c2C)cc(OC)c1C=O (stereo not given)"
  reported_value: "1.34 µM"

Note GI50 for the compound shown: Cc1cc(Nc2ccc(NC(=O)c3ccc(Nc4ccnc5ccccc45)cc3)cc2)nc(N)n1
> 100 µM

----------
# Tested on: HCC-2998 colon
# measurement_protocol: NCI tumour cell line growth inhibition, 48 h
property_measured: TGI (µM)
Provide the reading as a plain figure in µM.

Answered examples (2):
- molecule: "O=c1/c(=C/c2ccccc2[N+](=O)[O-])sc2nnc(-c3ccco3)n12"
  reported_value: 43.4
- molecule: "CC(C)Cc1ccc(C(C)C(=O)N2CCN(/C=C/c3ccccc3)CC2)cc1 (stereo unspecified)"
  reported_value: 31.8

Now turn to the next molecule.
State TGI on HCC-2998 colon. Entry: S=C(Nc1ccc(Cl)cc1)Nc1ccc(-c2nc3ccccc3s2)cc1
27.8

----------
# Test system: HCT-15 colon
# measurement_protocol: NCI tumour cell line growth inhibition, 48 h
property_measured: TGI

Answered examples (3):
- compound: "COc1cccc(C(=O)Oc2ccc(OS(=O)(=O)c3ccc(C)cc3)cc2)c1C#N"
  TGI: "> 100 µM"
- compound: "CC1(C)COC(C2(C)C(=O)C=C(c3ccccc3)c3ccccc32)=N1 (stereo unspecified)"
  TGI: "> 100 µM"
- compound: "Cc1c(C)c2c(c(N)c1C#N)C(=O)N(NC(=O)c1ccccc1)C2=O"
  TGI: "> 100 µM"

Note TGI for the compound shown: CC1(C)S[C@@H]2[C@H](NC(=O)C3(N)CCCCC3)C(=O)N2[C@H]1C(=O)O
> 100 µM

Note TGI for the compound shown: O=C(/C=C/c1ccccc1)CCC1C(=O)c2ccccc2C1=O
> 100 µM

Note TGI for the compound shown: COc1cccc(C2CC(C)(O)Oc3cc4c(cc32)OCO4)c1O (stereo unspecified)
> 72.5 µM

Note TGI for the compound shown: O=C(O)CCCc1nc2c(n1Cc1ccccc1)C(=O)c1ccccc1C2=O
> 100 µM

Note TGI for the compound shown: C=C1C(=O)OC2CC(C)C(C(CC(C)=O)OC(C)=O)=CCC12 (stereo unspecified)
7.96 µM

----------
# Tested on: NCI-H23 lung
# measurement_protocol: NCI tumour cell line growth inhibition, 48 h
TGI below 30 µM gives not satisfied; TGI at or above it gives satisfied.

Solved entries (count: 5):
- compound: "CC1(C)OC(C(=O)Nc2cc3c4ccccc4ccc3c3ccccc23)C(C(=O)N2CCCCC2)O1 (configuration not stated)"
  category: "satisfied"
- compound: "CO/N=C(/C)c1cccc(Nc2cc(-n3nnc4ccccc43)nc3ccccc23)c1"
  category: "satisfied"
- compound: "CC(C)Cc1ccc(C(C)C(=O)N2CCN(/C=C/c3ccccc3)CC2)cc1 (configuration not stated)"
  category: "not satisfied"
- compound: "CC(=O)Nc1ccc(N=Nc2c(O)c(S(=O)(=O)O)cc3cc(S(=O)(=O)O)ccc23)cc1"
  category: "satisfied"
- compound: "CC1(C)S[C@@H]2[C@H](NC(=O)C3(N)CCCCC3)C(=O)N2[C@H]1C(=O)O"
  category: "satisfied"

Check the entry O=C(O)C(O)C(O)C(O)C(O)c1nc2ccccc2s1 (configuration not stated) : does TGI equal or exceed 30 µM?
satisfied

Check the entry CO[C@@]12C[C@@H](C)C3=CCC(C)=C3CC1=C(C)C(=O)O2 : does TGI equal or exceed 30 µM?
satisfied

Check the entry COc1ccccc1/C=N\N/C(N)=N\N=C\c1ccccc1OC : does TGI equal or exceed 30 µM?
satisfied

Check the entry O=C1Sc2cc3ccccc3cc2C(=O)Sc2ccc(Br)cc21 : does TGI equal or exceed 30 µM?
not satisfied

Check the entry CCCC(=O)OCC1OC(n2ccc(N)nc2=O)C(OC(=O)CCC)C1OC(=O)CCC (configuration not stated) : does TGI equal or exceed 30 µM?
satisfied

Check the entry CC(C)(C)OC(=O)N(CCCCN(CCCNC(=O)C(F)(F)F)C(=O)OC(C)(C)C)CCCNC(=O)C(F)(F)F : does TGI equal or exceed 30 µM?
satisfied

Check the entry CCC12CCCN(Cc3ccccc3)C1c1c(n(C)c3ccccc13)CC2 (configuration not stated) : does TGI equal or exceed 30 µM?
satisfied

----------
# System: SK-MEL-5 melanoma
# measurement_protocol: NCI tumour cell line growth inhibition, 48 h
TGI below 30 µM gives NO; TGI at or above it gives YES.

Solved entries (count: 3):
- molecule: "C(=NCCN1CCOCC1)=NC1CCCCC1"
  system: "SK-MEL-5 melanoma"
  category: "YES"
- molecule: "COC(=O)C(C(=O)c1ccccc1)C(C(=O)C(=O)Nc1ccc(OC)cc1OC)C(=O)C(=O)c1ccc(C)cc1 (stereo not given)"
  system: "SK-MEL-5 melanoma"
  category: "YES"
- molecule: "O=C1c2ccccc2C(=O)N1CCn1ccc(NC(c2ccccc2)(c2ccccc2)c2ccccc2)nc1=O"
  system: "SK-MEL-5 melanoma"
  category: "YES"

Let's switch to this molecule now.
Check the entry O=C1CCC(Cl)=CC2CCCN12 (stereo not given) : does TGI equal or exceed 30 µM?
YES

----------
# Tested on: COLO 205 colon
# measurement_protocol: NCI tumour cell line growth inhibition, 48 h
property_measured: log10(TGI) (log10 of the value in µM)
A difference of one corresponds to tenfold TGI; all values are log10 with TGI in µM.

- compound: "C=C1C(=O)OC2CC(C)C(C(CC(C)=O)OC(C)=O)=CCC12 (configuration not stated)"
  system: "COLO 205 colon"
  log10(TGI): 1.33

Now turn to the next compound.
Note log10(TGI) for the compound shown: O=C1Sc2cc3ccccc3cc2C(=O)Sc2ccc(Br)cc21
1.54

----------
# System: HOP-62 NSCLC
# measurement_protocol: NCI tumour cell line growth inhibition, 48 h
property_measured: TGI

Answered examples (2):
- compound: "C=CCc1c(O)c2c(c3oc(=O)cc(C)c13)CC(C)O2 (centres undefined)"
  TGI: "> 100 µM"
- compound: "CC(C)Cc1ccc(C(C)C(=O)N2CCN(/C=C/c3ccccc3)CC2)cc1 (centres undefined)"
  TGI: "29.7 µM"

Note TGI for the compound shown: CO/N=C(\C)c1ccc(Nc2nc3ccccc3c3occc23)cc1
29.5 µM

Note TGI for the compound shown: CN1C(=O)c2ccccc2OC12C=Cc1c(ccc3ccccc13)O2 (centres undefined)
27.3 µM

Note TGI for the compound shown: Cc1ccc(/C=N/Nc2cc(C)c3cccc(C)c3n2)s1
25.7 µM

Note TGI for the compound shown: CC(=O)N(C(C)=O)c1ncc(-n2nc(-c3ccccc3)cc2-c2ccccc2)c(-c2ccccc2)n1
> 10 µM

Note TGI for the compound shown: O=C1C=CC(=O)c2c1ccc1c3ccccc3n(CCCCCn3c4ccccc4c4ccc5c(c43)C(=O)C=CC5=O)c21
> 100 µM

Note TGI for the compound shown: BrC1=C(Br)C2(SCCS2)[C@H]2C[C@@H]1c1ccccc12
> 100 µM
